Assay: Blood concentrations in satellite animals of the electroshock seizure study
Assay type: in vivo, rat
Conditions: CD, whole blood, oral; rat satellite animals; 2 hours after 60 mg/kg p.o.
metric-name: concentration at 2 h (ng/mL)
Just the number in ng/mL, nothing appended.

Which value of concentration at 2 h has been reported for CC[C@H]1NC(=O)N(c2ccc(Oc3ccc(C)c(OC)c3)nc2)C1=O in the records?
9110

----------
Target: hKv3.2 (Homo sapiens, UniProt Q96PR1)
Construct: expressed in transfected cells; host or cells: CHO-K1
Sequence (Q96PR1 whole entry): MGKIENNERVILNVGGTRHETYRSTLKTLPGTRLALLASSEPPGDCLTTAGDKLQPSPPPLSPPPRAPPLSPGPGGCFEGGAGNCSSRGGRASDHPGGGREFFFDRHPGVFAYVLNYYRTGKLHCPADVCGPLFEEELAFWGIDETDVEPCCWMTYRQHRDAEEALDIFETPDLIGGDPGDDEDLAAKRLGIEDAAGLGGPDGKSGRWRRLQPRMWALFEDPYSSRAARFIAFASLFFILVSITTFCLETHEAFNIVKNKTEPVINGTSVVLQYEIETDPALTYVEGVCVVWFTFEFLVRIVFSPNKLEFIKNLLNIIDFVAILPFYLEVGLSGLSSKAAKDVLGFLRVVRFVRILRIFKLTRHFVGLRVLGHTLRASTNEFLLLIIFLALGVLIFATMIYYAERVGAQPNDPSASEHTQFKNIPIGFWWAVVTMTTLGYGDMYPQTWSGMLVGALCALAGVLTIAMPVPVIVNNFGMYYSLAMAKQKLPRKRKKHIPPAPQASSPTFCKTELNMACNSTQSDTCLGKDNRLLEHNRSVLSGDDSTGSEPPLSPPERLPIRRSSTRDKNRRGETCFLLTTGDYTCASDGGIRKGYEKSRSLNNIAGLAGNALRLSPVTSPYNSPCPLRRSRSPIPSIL
Assay: IonWorks Quattro assay, secondary analysis of activation time constant (Tauact)
Assay type: cell-based
Settings: classification from effect on Tauact
Description: A stable cell line expressing human Kv3.2 channels (hKv3.2) was created by transfecting Chinese Hamster Ovary (CHO)-K1 cells with a pCIH5-hKv3.2 vector. […] Experiments were conducted at room temperature using IonWorks Quattro™ planar array electrophysiology technology (Molecular Devices Corp.) with PatchPlate™ PPC. […] Planar electrode hole resistances (Rp) were determined by applying a 10 mV voltage step across each well. […]
metric-name: acts as positive or negative modulator of Kv3.1 and/or Kv3.2

CC[C@H]1NC(=O)N(c2ccc(Oc3ccc(C)c(OC)c3)nc2)C1=O [Example 19]: positive modulators
CCc1cc(Oc2ccc(N3C(=O)N[C@H](CC)C3=O)cn2)ccc1C#N [Example 78]: positive modulators
CC[C@H]1NC(=O)N(c2ccc(Oc3ccc(C#N)cc3C3CC3)nc2)C1=O [Example 70]: positive modulators
